Each record here notes measured growth.
- Test system: RPMI-8226 leukemia
- Assay Comment: NCI-60 one-dose screen, 48 h (100 = growth as untreated, 0 = no growth, -100 = all killed)
- Study Conditions: 10 µM unless noted
Compounds without any hit were thinned out: in the full panel of roughly 83,000, 20% have a hit.
# number only, unit % dropped from output

In the examples that follow, each entry is paired with its recorded growth.
{"Compound": "CNCCCNCCCCNCCCN1C(=O)c2ccc3c4c(ccc(c24)C1=O)C(=O)N(CCCNCc1ccccc1OC)C3=O", "Units": "%", "growth": 15}
{"Compound": "CCCCCCCCCCCCCCCCC(=O)O.CCCCCCCCCCCCCCCCCC(=O)O.CCCCCCCCCCCCCCCCCC(=O)O.CCCCCCCCCCCCCCCCCC(=O)O.CCCCCCCCCCCCCCCCCC(=O)O.CO[CH-]OC12COC1CC(O)C1(C)C(O)C(OC(C)O)C3=C(C)C(OC(=O)C(O)C([NH-])c4ccccc4)CC(O)(C(OC(=O)c4ccccc4)C21)C3(C)C.[Cu+].[Zn].[Zn].[Zn].[Zn].[Zn] (stereo not drawn)", "Units": "%", "growth": 22.4}
{"Compound": "COc1ccc(C(O)(c2ccccc2)C(C(=O)O)c2ccccc2)cc1 (stereo not drawn)", "Units": "%", "growth": 95.5}
{"Compound": "CCCCCCCCc1ccc(CCC(N)(CO)CO)cc1", "Units": "%", "growth": -23.2}

Query: Param readout= growth; system= RPMI-8226 leukemia; entry= Cc1c([C@H](C(Cl)Cl)[C@H](O)[C@H]2C[C@H](C)C(=O)O2)ccc2c1C(=O)[C@H]1[C@H]2C[C@@H](Br)[C@@]23O[C@@H](CO[C@H]2O)CC13C (stereo partly drawn) ; returns value.
Reply: 26.7

Query: And what about the compound COC1(OC)N=C(N)C2(C#N)C3(C(=O)Nc4ccccc43)C12C#N (stereo not drawn) ?
Reply: 49.7

Query: And what about the compound `Cc1ccc(C(=O)Nc2ccc(CN3CCN(C)CC3)c(C(F)(F)F)c2)cc1C#Cc1cncc2ncccc12` ?
Reply: -53.5

Query: And what about the compound `CCCCCCCCCCCCCCCCCC1=NCCN1CS(=O)(=O)O` ?
Reply: 65

Query: And what about the compound CCCCCN1CCN(C(CC(=O)c2ccccc2)C(=O)c2ccccc2)CC1 (stereo not drawn) ?
Reply: 12.6

Query: And what about the compound CC(CCN1CCN(CCC(C)CC(C)(C)C)C1CC(C)CC(C)(C)C)CC(C)(C)C (stereo not drawn) ?
Reply: 76.4

###

- System: K-562 leukemia
- Assay Comment: NCI-60 one-dose screen, 48 h
- Study Conditions: 10 µM unless noted
- Procedure: Cells are grown in 96 well plates and exposed to the test compound for 48 hours. Compounds are tested at a single concentration, which is 10^-5 M for most compounds. The reported endpoint is percent growth (GI% or GIPRCNT), where numbers from 0 - 100% represent growth inhibition, and numbers from -100% - 0 represent cell death. For example, a value of 40 represents 60% growth inhibition. A value of 0 means no net growth occurred over the course of the experiment. […]
About 83,000 compounds went through this panel and 20% of them were active in at least one assay; those are over-represented in the sample as a whole. Activity calls are given as the source filed them. Rule for the calls: active = growth percent below 10; inactive = the rest.
Output constraint: value belongs to 1 (active), -1 (inactive)

Previously resolved entries follow.
{"Compound Smiles": "CCn1cnc(C[C@H](NC(=O)[C@@H](NC(=O)Nc2cc(C(F)(F)F)cc(C(F)(F)F)c2)C(C)(C)C)C(=O)OC)c1", "Tested Target": "K-562 leukemia", "Label": 1}
{"Compound Smiles": "CC(=O)OCC(=O)[C@@]1(O)[C@H](C)C[C@H]2[C@@H]3C=C(C)C4=Cc5c(cnn5-c5ccc(F)cc5)C[C@]4(C)[C@H]3[C@@H](O)C[C@@]21C", "Tested Target": "K-562 leukemia", "Label": -1}

Query: Identify the outcome logged in this assay for the compound shown: `O=S(=O)(O)c1ccc2c(c1)Sc1cc(S(=O)(=O)O)ccc1O2`
Reply: -1

Query: And what about the compound `O=C(O)c1ccc(-c2nn(-c3ccc(C(=O)O)cc3)cc2CNc2ccc(Br)cc2)cc1` ?
Reply: -1

Query: And what about the compound `COc1ccc2c(c1)cn1c3ccc(O)cc3[nH]c(=O)c21` ?
Reply: 1

Query: And what about the compound `O=C(Nc1cccc(Cn2c(=O)[nH]c3ccc(Oc4ncccn4)cc3c2=O)c1)c1cccc(F)c1` ?
Reply: -1

Query: And what about the compound `COc1ccc(-c2nc(SCC(C)C)nc(Nc3ccc(C(=O)O)cc3)c2C#N)cc1` ?
Reply: -1

Query: And what about the compound `CC1=C(C)C[C@]2(C(=O)O[C@H]3CCCC[C@@H]32)[S@](=O)C1` ?
Reply: -1

Query: And what about the compound `COc1ccc(Cn2cc3c(c2-c2ccccc2)CCc2cnoc2-3)cc1N` ?
Reply: -1

###

- Tested on: OVCAR-4 ovarian
- Assay Comment: NCI-60 one-dose screen, 48 h (100 = growth as untreated, 0 = no growth, -100 = all killed)
- Study Conditions: 10 µM unless noted
Compounds without any hit were thinned out: in the full panel of roughly 83,000, 20% have a hit.
Each record here notes measured growth.
# number only, unit % dropped from output

In the examples that follow, each entry is paired with its recorded growth.
{"Compound": "CCNc1nnc(COc2ccc(CNC(=O)CCCC/C=C/C(C)C)cc2OC)o1", "Tested Target": "OVCAR-4 ovarian", "Reported Measurement": 103}
{"Compound": "CNCCCNCCCCNCCCN1C(=O)c2ccc3c4c(ccc(c24)C1=O)C(=O)N(CCCNCc1ccccc1OC)C3=O", "Tested Target": "OVCAR-4 ovarian", "Reported Measurement": -10.8}
{"Compound": "CC(=O)N1CCN(CCNC(=O)n2cc(-c3ccncc3)c(-c3cc(O)cc(Cl)c3)n2)CC1", "Tested Target": "OVCAR-4 ovarian", "Reported Measurement": 116}
{"Compound": "CCC1(CC)C(OC)NC(Br)=C(C#N)C1(C#N)C(N)=O (stereo not given)", "Tested Target": "OVCAR-4 ovarian", "Reported Measurement": 110}
{"Compound": "CC(=O)Nc1ccc(S(=O)(=O)Cl)cc1", "Tested Target": "OVCAR-4 ovarian", "Reported Measurement": 110}
{"Compound": "CC1(C)N=C(N)N=C(N)N1c1cccc(CCCCOc2ccccc2)c1", "Tested Target": "OVCAR-4 ovarian", "Reported Measurement": 61}

Attention now shifts to the item below.
Query: Which value of growth has been reported for `CCc1ccc(C(=Nc2ccc(N(C)C(=O)CN3CCN(C)CC3)cc2)c2c(O)[nH]c3ccc(C(=O)OC)cc23)cc1` in the records?
Reply: -61.3

###

- System: MOLT-4 leukemia
- Assay Comment: NCI-60 one-dose screen, 48 h
- Study Conditions: 10 µM unless noted
The panel holds about 83,000 compounds, 20% with a hit somewhere; the sample as a whole holds those more often. Active and inactive are the calls of the source. How the source made its calls: active means growth percent below 10; inactive means the rest.
Output constraint: value belongs to YES for active, NO for inactive

Previously resolved entries follow.
{"Compound": "COC(=O)c1ccc2[nH]c(O)c(C(=Nc3ccc(N(C)C(=O)CN4CCN(C)CC4)cc3)c3cccc(OC)c3)c2c1", "Label": "YES"}
{"Compound": "Cc1ccc(NC(=O)CCl)cc1Cl", "Label": "NO"}
{"Compound": "CCCCCCCCCC[N+](C)(C)C", "Label": "YES"}
{"Compound": "CCOC(=O)c1c(C)oc2ncnc(Nc3ccc(NC(=O)Nc4ccc(CC)cc4)cc3)c12", "Label": "NO"}
{"Compound": "Clc1ccc(N/N=C(\\c2ccccc2)c2ccccn2)nc1", "Label": "YES"}
{"Compound": "O=C1NCCN1/N=C/c1c(Cl)nc2n1CCS2", "Label": "NO"}

Query: Identify the outcome logged in this assay for the compound shown: `O=C(/C=C\c1ccc(NCc2ccc(C(=O)O)cc2)cc1)CCl`
Reply: YES

Query: And what about the compound `O=S(=O)(Cc1cccc2c(CS(=O)(=O)c3ccc(Cl)cc3)cccc12)c1ccc(Cl)cc1` ?
Reply: NO

Query: And what about the compound `COc1cc(/C(=C2/O[C@@H]([C@H]3COC(C)(C)O3)[C@H]3OC(C)(C)O[C@@H]23)c2ccc3c(c2)OCO3)cc(OC)c1OC` ?
Reply: NO

Query: And what about the compound N#Cc1ccc(NC2c3ccccc3CC2O)cc1 (stereo not given) ?
Reply: NO

###

- Test system: U251 CNS
- Assay Comment: NCI-60 one-dose screen, 48 h
- Study Conditions: 10 µM unless noted
About 83,000 compounds went through this panel and 20% of them were active in at least one assay; those are over-represented in the sample as a whole. Active and inactive are the calls of the source. The calls were made as follows: active = growth percent below 10; inactive = the rest.
Output constraint: value belongs to 1 = active, 0 = inactive

Previously resolved entries follow.
{"Compound": "COc1ccccc1CNCCCN1C(=O)c2ccc3c4c(ccc(c24)C1=O)C(=O)N(CCCNCc1ccccc1OC)C3=O", "Label": 1}
{"Compound": "OCCN1CCCN(CCCN2c3ccccc3Sc3ccc(C(F)(F)F)cc32)CC1", "Label": 0}
{"Compound": "C#CCCCCCCC[C@@H]1OC(=O)[C@H]([C@@H](C)CC)NC(=O)[C@H]([C@@H](C)CC)NC(=O)CC(=O)[C@@H]1C", "Label": 0}

Query: Identify the outcome logged in this assay for the compound shown: `O=c1[nH]c(=S)[nH]c(O)c1/C=C1\C=Nc2ccccc21`
Reply: 0

Query: And what about the compound Cc1ccc(C(=O)C(Br)C(Br)c2ccccc2)cc1 (stereo not given) ?
Reply: 0

Query: And what about the compound COc1ccc(C2=NN(C(=O)c3cc(-c4ccc(C)cc4)nc4ccccc34)C(c3cc(-c4ccccc4)nn3-c3ccccc3)C2)cc1 (stereo not given) ?
Reply: 0

Query: And what about the compound `NC(N)=N/N=C/c1cccc(Br)c1` ?
Reply: 0

Query: And what about the compound `COc1cc(-c2nn(-c3ccc(NC(=O)Nc4cc(C(F)(F)F)cc(C(F)(F)F)c4)cc3)cc2-c2ccncc2)ccc1Cl` ?
Reply: 1

Query: And what about the compound `O=C(Cc1ccccc1[N+](=O)[O-])c1ccc2c(c1)OCO2` ?
Reply: 0

Query: And what about the compound `CCCNC(=O)Oc1ccc(/C(=C(/C)Cc2ccc(OC)cc2)c2ccc(OCCN3CCCC3)cc2)cc1` ?
Reply: 0

Query: And what about the compound `CCCCCCCCCCCCCCCCNC(=O)Nc1ccc(C)c(NC(=O)NCCCCCCCCCCCCCCCC)c1` ?
Reply: 0

Query: And what about the compound `CC(C)(C)c1ccc(OCCOC(=O)CBr)cc1` ?
Reply: 0

Query: And what about the compound `Cc1nc2c(nnn2-c2ccccc2)c2nc(-c3ccc(Cl)cc3)oc(=O)c12` ?
Reply: 0

Query: And what about the compound `CC(=O)/C(=C\c1c(-c2ccccc2)[nH]c2ccccc12)S(=O)(=O)c1ccccc1` ?
Reply: 0

Query: And what about the compound `O=C(/C=C/c1c[nH]c2ccccc12)c1cc2ccccc2o1` ?
Reply: 0

Query: And what about the compound `COc1ccccc1C(=O)Nc1cccc(-c2cc(=O)c3c(OC)c(OC)c(OC)cc3o2)c1` ?
Reply: 0

Query: And what about the compound `O=C(Nc1ccc(Cl)c(Cl)c1)O/N=C\c1c(Cl)ccc([N+](=O)[O-])c1Cl` ?
Reply: 1

Query: And what about the compound `Cc1cc2c(-c3nc4ccccc4n3C)c(O)c(O)cc2c(O)c1-c1c(C)cc2c(-c3nc4ccccc4n3C)c(O)c(O)cc2c1O` ?
Reply: 0

Query: And what about the compound `Br/C(=N\Nc1nn[nH]n1)c1ccccc1` ?
Reply: 0

Query: And what about the compound CCC1(CC)C(OC)NC(Br)=C(C#N)C1(C#N)C(N)=O (stereo not given) ?
Reply: 0
